System: SR
Assay: NCI tumour cell line growth inhibition, 48 h
Calls of active or inactive are those of the source. Rule as the data show it: active = GI50 up to about 1.1 µM and inactive = higher.
Field 'call' accepts active, inactive

Consider the worked cases shown below.
compound	group-label
CC1Cc2c(cc(N)nc2Br)NC1=O (centres undefined)	inactive
CN(C)c1ccc(/C=C(\NC(=O)c2ccccc2)c2nc3cncnc3[nH]2)cc1	inactive
CCOC(=O)[C@H]1Nc2ccc(OC)cc2C2c3ccccc3CC21 (some centres undefined)	inactive
N=C(N)NS(=O)(=O)c1ccc(NCc2cccc3c(=O)c4ccc(Cl)cc4oc23)cc1	inactive
O=C1CSC(/C(=C\c2ccc(Cl)cc2)c2nc3ccccc3[nH]2)=N1	inactive

Exercise: Outcome logged for N#CC1=C(N)Oc2c(ccc3cccnc23)C1c1ccccc1 (centres undefined) in this assay:
Key: active

Exercise: Outcome logged for CC(=O)c1c(O)nnc(-c2ccc(Cl)cc2)c1-c1ccc(Cl)cc1 in this assay:
Key: inactive

Exercise: Outcome logged for Cc1nc2ccccc2c(=O)n1NC(=O)c1ccccn1 in this assay:
Key: inactive

Exercise: Outcome logged for c1cc(-c2ccsc2-c2ccsc2)cs1 in this assay:
Key: inactive

Exercise: Outcome logged for Cc1ccc([N+](=O)[O-])cc1S(=O)(=O)Nc1ccc(C2=NOC(c3cccs3)C2)cc1 (centres undefined) in this assay:
Key: inactive

Exercise: Outcome logged for CCOC(=O)NC(C(F)(F)F)(C(F)(F)F)P(=O)(OCC(C)C)OCC(C)C in this assay:
Key: inactive

* * *

System: HCT-116
Assay: NCI tumour cell line growth inhibition, 48 h
Calls of active or inactive are those of the source. No stated cut-off is given here; in the data, active = GI50 up to about 1.1 µM and inactive = higher.
Field 'call' accepts class 1 = active, class 0 = inactive

compound	group-label
C/C(=C\CBr)CCC(Br)C(C)(C)Br (stereo not given)	class 0
Cc1ccc(C(=O)O)c(/C=C2\Cc3ccc(C)cc3C2=O)c1	class 0
Cc1ccc(O)c(-c2cc(-c3cccc(Br)c3)c(C#N)c(N)n2)c1	class 0
CC(=O)[C@@]1(O)CC[C@H]2[C@@H]3C[C@H](C)C4=CC(=O)CC[C@]4(C)[C@H]3[C@@H](O)C[C@@]21C	class 0
O=C1NC(N2CCCCC2)=N/C1=C\c1cccs1	class 0

Exercise: Outcome logged for Cc1ccc(OCC2OC(n3cnc4nc(Nc5ccc(Cl)c(Cl)c5)nc(Cl)c43)CC2Oc2ccc(C)cc2)cc1 (stereo not given) in this assay:
Key: class 0

Exercise: Outcome logged for CCOC(=O)C(Cc1ccc(OC(=O)c2ccc(OC)cc2)cc1)NC(=O)C(F)(F)F (stereo not given) in this assay:
Key: class 0

* * *

System: KM12
Assay: NCI tumour cell line growth inhibition, 48 h
Calls of active or inactive are those of the source. Rule as the data show it: active = GI50 up to about 1.1 µM and inactive = higher.
measure: GI50

Look over these answered cases.
compound	experimental-system	GI50
C[C@]12CC[C@H]3[C@@H](CC=C4C[C@@H](O)CC[C@@]43C)[C@@H]1C/C(=C\c1cccnc1)[C@@H]2O	KM12	> 100 µM (inactive)
COC(=O)c1cc(Cl)ccc1NC(=O)c1ccc([N+](=O)[O-])cc1	KM12	19.8 µM (inactive)
C/C(CC(=O)Nc1ccc(C)c(C)c1)=N\NC(N)=O	KM12	> 100 µM (inactive)
COC(=O)C1(Cc2ccccc2)Cc2c(C)ccc(C)c2C1=O (stereo not given)	KM12	13.8 µM (inactive)

# next compound below
Exercise: Tell me the measured GI50 of C(=C\c1ccccc1)/Cn1nc(-c2ccccc2)nc1-c1cnccn1 , please.
Key: > 10 µM (inactive)

* * *

System: BT-549
Test: NCI tumour cell line growth inhibition, 48 h
Active and inactive are the calls of the source. No stated cut-off is given here; in the data, active = GI50 up to about 1.1 µM and inactive = higher.
Field 'call' accepts active, inactive

Consider the worked cases shown below.
compound	group-label
COc1ccc(C2=NN(C(=O)c3ccccc3)C(O)(c3cc(F)c(Cl)cc3Cl)C2)cc1OC (stereo unspecified)	inactive
C/C(=C\CBr)CCC(Br)C(C)(C)Br (stereo unspecified)	inactive
COC(=O)C(I(OS(=O)(=O)c1ccc(C)cc1)c1ccccc1)=P(c1ccccc1)(c1ccccc1)c1ccccc1	inactive

Exercise: Outcome logged for COC(=O)[C@@H]1Cc2ccc(OC)c(c2)OCCC(=O)N1 in this assay:
Key: inactive

Exercise: Outcome logged for Nc1nc(-c2cccnc2)cc(-c2cc(-c3cccnc3)nc(N)n2)n1 in this assay:
Key: inactive

Exercise: Outcome logged for C[C@@H]1CCC2[C@@H](C)[C@@H](OCCO[C@H]3OC4O[C@@]5(C)CCC6[C@H](C)CCC([C@H]3C)[C@@]46OO5)OC3O[C@@]4(C)CCC1[C@]32OO4 (stereo partly specified) in this assay:
Key: active

* * *

Catalogue of compounds with associated GI50
Tested on: LOX IMVI
Assay: NCI tumour cell line growth inhibition, 48 h
The source made the active and inactive calls. No stated cut-off is given here; in the data, active = GI50 up to about 1.1 µM and inactive = higher.

Look over these answered cases.
compound	GI50
CCOC(=O)C(Cc1ccc(OC(=O)c2ccc(OC)cc2)cc1)NC(=O)C(F)(F)F (stereo not drawn)	> 100 µM (inactive)
CCC1(N=[N+]=[N-])C(=O)Nc2cc(C)ccc2C1=O (stereo not drawn)	86.5 µM (inactive)

# next compound below
Exercise: Tell me the measured GI50 of CCOCN/C(N)=N\C#N , please.
Key: 12.1 µM (inactive)

* * *

Tested on: SK-MEL-2
Assay: NCI tumour cell line growth inhibition, 48 h
Active and inactive are the calls of the source. No stated cut-off is given here; in the data, active = GI50 up to about 1.1 µM and inactive = higher.
measure: GI50

compound	measure	result
OCCN(CCO)c1ncnc2c1sc(=S)n2-c1ccccc1	GI50	> 100 µM (inactive)
C/C(=N\Oc1cc(Cl)ncn1)c1ccccn1	GI50	14.1 µM (inactive)

Exercise: Tell me the measured GI50 of CCOC(=O)C(NC(=O)c1ccc(/N=N/N(C)C)cc1)C(C)C (stereo unspecified) , please.
Key: > 100 µM (inactive)

* * *

Catalogue of compounds with associated GI50
Tested on: NCI-H23
Experiment: NCI tumour cell line growth inhibition, 48 h
Calls of active or inactive are those of the source. No stated cut-off is given here; in the data, active = GI50 up to about 1.1 µM and inactive = higher.

Look over these answered cases.
compound	GI50
Cc1nc2c(n1CC(C)(C)C)C(=O)c1ccccc1C2=O	> 100 µM (inactive)
Cc1cc(Cl)ccc1NC(=O)CC1SC(NC(=O)c2ccccc2Cl)=NC1=O (stereo not drawn)	50.2 µM (inactive)
COC(=O)CC(c1cn(S(=O)(=O)c2ccc(C)cc2)c2ccccc12)C1C[C@@H](C(=O)OC)N(C(=O)OC(C)(C)C)C1=O (stereo partly drawn)	66.8 µM (inactive)
O=[N+]([O-])c1ccc(N/N=C/CC(O)(C(F)(F)F)C(F)(F)F)c([N+](=O)[O-])c1	2.77 µM (inactive)
COP(=O)(/C=C/c1cc(C(=O)OCc2ccccc2)n(S(=O)(=O)c2ccccc2)c1)OC	> 100 µM (inactive)
Cc1ccc(S(=O)(=O)CC2(Br)CCc3ccccc3C2=O)cc1 (stereo not drawn)	33.6 µM (inactive)
Cc1cccc2c(O)c3c(O)cc(O)cc3nc12	> 10 µM (inactive)
COC(=O)[C@H](Cc1ccccc1)NC(=O)c1ccc(CNC(=O)/C=C/c2cccc(Oc3ccccc3)c2)cc1	36.7 µM (inactive)
Cn1c(=O)c2c(nc3[nH]c(=O)c(Br)cn32)n(C)c1=O	> 100 µM (inactive)
COc1cc(C2C(Cl)C(=O)N2c2c(C)n(C)n(-c3ccccc3)c2=O)ccc1O (stereo not drawn)	14.7 µM (inactive)

Exercise: Tell me the measured GI50 of Nc1nc[n+](Cc2ccccc2CCO)c2[nH]cnc12 , please.
Key: > 100 µM (inactive)

Exercise: Tell me the measured GI50 of C[C@]12CC[C@H]3[C@@H](CC=C4C[C@@H](O)CC[C@@]43C)[C@@H]1C/C(=C\c1cccnc1)[C@@H]2O , please.
Key: 13.1 µM (inactive)

Exercise: Tell me the measured GI50 of O=C(O)C1CC=CCC1C(=O)Nc1cccc(O)c1 (stereo not drawn) , please.
Key: > 100 µM (inactive)

* * *

Test system: T47D
Assay: NCI tumour cell line growth inhibition, 48 h
Activity calls are given as the source filed them. Rule as the data show it: active = GI50 up to about 1.1 µM and inactive = higher.
measure: GI50

Look over these answered cases.
compound	GI50
CCOC(=O)CC(=O)Nc1cccc2sc3ncccc3c(=O)c12	3.95 µM (inactive)
O=C(NNCC(F)(F)F)c1ccncc1	> 100 µM (inactive)
Clc1ccc(C(c2ccccc2Cl)C(Cl)Cl)cc1 (stereo unspecified) [MITOTANE]	1.64 µM (inactive)
Cc1cc(C)nc(NS(=O)(=O)c2ccc(NN=c3c4ccccc4n(C)c4ccccc34)cc2)n1	13.9 µM (inactive)
CC(=O)O/C=C\OC1CCCC1	> 100 µM (inactive)

# next compound below
Exercise: Tell me the measured GI50 of CC1(C)N=C(N)N=C(N)N1c1cccc(Cl)c1 , please.
Key: > 100 µM (inactive)

* * *

System: MCF7
Test: NCI tumour cell line growth inhibition, 48 h
Calls of active or inactive are those of the source. Rule as the data show it: active = GI50 up to about 1.1 µM and inactive = higher.
Field 'call' accepts active, inactive

Exercise: Outcome logged for O=C1Nc2ccccc2C1=Nc1ccc(S(=O)(=O)Nc2nccs2)cc1 in this assay:
Key: inactive

Exercise: Outcome logged for COc1ccc(/C=C2/C(=O)C(c3ccccc3)N(c3ccccc3)C2=O)cc1OC (centres undefined) in this assay:
Key: inactive

Exercise: Outcome logged for COc1ccc(C(NS(=O)(=O)c2ccc(C)cc2)c2c(C(CBr)OC)c3ccccc3n2S(=O)(=O)c2ccccc2)cc1OC (centres undefined) in this assay:
Key: inactive

Exercise: Outcome logged for Cc1ccc(C(=O)/C=C2\Nc3ccccc3S\C2=N\CS(=O)(=O)c2ccc(C)cc2)cc1 in this assay:
Key: inactive

Exercise: Outcome logged for COc1cc(C2c3cc4c(cc3[C@@H](Nc3cccc(O)c3)C3COC(=O)[C@H]23)OCO4)cc(OC)c1O (some centres undefined) in this assay:
Key: active
